system: α2-GABAA receptor; assay: Ligand-binding assay, radiolabeled flumazenil competition, spinal cord membranes; details: 10^−5 M; rat spinal cord membranes; radiolabeled flumazenil 1 nM
Overview of reported % inhib 10^−5 M, affinity for the α2-subunit of the GABAA receptor across a group of compounds:
For clarity, give the value followed by its unit.

[[record]]
compound = "CCN(CC)C(=O)Cc1c(-c2ccc(OC)cc2)nc2ccc(C)nn12"
measured_result = "80.3%"

[[record]]
compound = "Cc1ccc(-c2nc3ccc(C)nn3c2CC(=O)Nc2nccs2)cc1"
measured_result = "93.1%"

[[record]]
compound = "CCCN(CCC)C(=O)Cc1c(-c2ccc(F)cc2)nc2ccc(OCC)nn12"
measured_result = "80.3%"

[[record]]
compound = "COc1ccc2nc(-c3ccc(F)cc3)c(CC(=O)N3CCCCC3)n2n1"
measured_result = "78.5%"


Moving on to another compound below.
Task: Which measured % inhib 10^−5 M, affinity for the α2-subunit of the GABAA receptor value corresponds to CCCN(CCC)C(=O)Cc1c(-c2ccccc2)nc2ccc(C)nn12 ?
Result: 92.5%
